Cited source: ChEMBL document CHEMBL5034015

System: HEK-293T
Test: Cytotoxicity against HEK293T cells assessed as reduction in cell viability incubated for 48 hrs by CCK8 assay
Conditions: Homo sapiens
Listed below: IC50 values for each entry.

O=C(NCCNS(=O)(=O)c1sccc1-c1ccccc1Oc1ccc(O)c(O)c1)Nc1cc(C(F)(F)F)cc(C(F)(F)F)c1: 8.9 µM
COc1cccc(NC(=O)NCCNS(=O)(=O)c2sccc2-c2ccc(C)cc2Oc2ccc(O)c(O)c2)c1: > 20 µM
COc1ccc(Oc2ccccc2-c2ccsc2S(=O)(=O)N2CCN(C(=O)Nc3ccc(F)cc3)CC2)cc1OC: > 50 µM

Lab note: O=[N+]([O-])c1cccc(NC(=S)NCCNS(=O)(=O)c2ccc(-c3ccccc3OCc3cccc(O)c3)s2)c1 gave IC50 of 13.8 µM

Lab note: Cc1cc(C)cc(NC(=O)NCCNS(=O)(=O)c2ccc(-c3ccccc3Oc3ccc([N+](=O)[O-])c([N+](=O)[O-])c3)s2)c1 gave IC50 of > 50 µM
